Target: T1, human factor X (human, UniProt P00742 41-179; P00742 183-488)
T1 construct: Zymogen used as analyte in SPR; also called FX; Human FX (MW ~58 KDa)
T1 sequence (P00742 41-179, chain 1 of 2): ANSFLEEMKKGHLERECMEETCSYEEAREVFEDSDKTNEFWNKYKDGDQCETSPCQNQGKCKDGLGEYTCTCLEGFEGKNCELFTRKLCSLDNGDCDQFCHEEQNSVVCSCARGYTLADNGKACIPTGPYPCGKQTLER
T1 sequence (P00742 183-488, chain 2 of 2): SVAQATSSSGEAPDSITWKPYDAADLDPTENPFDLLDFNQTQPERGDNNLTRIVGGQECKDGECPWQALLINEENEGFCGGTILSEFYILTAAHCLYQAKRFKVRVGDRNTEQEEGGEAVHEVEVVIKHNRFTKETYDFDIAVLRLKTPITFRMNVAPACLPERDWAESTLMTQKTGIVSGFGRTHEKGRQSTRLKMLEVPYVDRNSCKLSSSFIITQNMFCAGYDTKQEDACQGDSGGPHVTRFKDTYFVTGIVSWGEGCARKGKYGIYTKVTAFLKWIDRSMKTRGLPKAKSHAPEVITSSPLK
Experiment: SPR, IgG captured on anti-human IgG Fc, human FX as analyte
kon overview
Give the number; M⁻¹ s⁻¹ is assumed, so skip it.

# count of solved cases: 5
TINA-0204.0128 (antibody, V domains shown, Monospecific IgG4PE) VH: QVQLVQSGAEVQKTGASVKVSCKASRYSFTSYYMHWVRQAPGQGLEWMGIINPKSGSTSYAQKFQGRVTMTRDTSTSTVYMELSSLRSEDTAVYYCARDGYGSSSRCLQLWGQGTLVTVSS VL: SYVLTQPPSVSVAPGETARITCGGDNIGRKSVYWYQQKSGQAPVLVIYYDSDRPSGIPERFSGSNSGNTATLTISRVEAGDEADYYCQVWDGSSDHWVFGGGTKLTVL; 109000
TINA-0202.0128 (antibody, V domains shown, Monospecific IgG4PE) VH: QVQLIQSGAEVQKPGASVKVSCKASRYSFTSYYMHWVRQAPGQGLEWMGIINPKSGSTSYAQKFQGRVTMTRDTSTSTVYMELSSLRSEDTAVYYCARDGYGSSSRCLQLWGQGTLVTVSS VL: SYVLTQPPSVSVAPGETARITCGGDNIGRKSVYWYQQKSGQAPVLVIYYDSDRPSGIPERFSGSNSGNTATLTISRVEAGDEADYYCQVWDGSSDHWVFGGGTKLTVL; 88700
TINA-0207.0128 (antibody, V domains shown, Monospecific IgG4PE) VH: QVQLVQSGAEVKKTGASVKVSCKASRYSFTSYYMHWVRQAPGQGLEWMGIINPKSGSTSYAQKFQGRVTMTRDTSTSTVYMELSSLRSEDTAVYYCARDGYGSSSRCLQLWGQGTLVTVSS VL: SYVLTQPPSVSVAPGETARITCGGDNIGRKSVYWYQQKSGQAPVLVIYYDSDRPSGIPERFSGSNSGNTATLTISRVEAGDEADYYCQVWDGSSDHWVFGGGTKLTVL; 166000
TINA-0201.0128 (antibody, V domains shown, Monospecific IgG4PE) VH: QVQLIQSGAEVKKPGASVKVSCKASRYSFTSYYMHWVRQAPGQGLEWMGIINPKSGSTSYAQKFQGRVTMTRDTSTSTVYMELSSLRSEDTAVYYCARDGYGSSSRCLQLWGQGTLVTVSS VL: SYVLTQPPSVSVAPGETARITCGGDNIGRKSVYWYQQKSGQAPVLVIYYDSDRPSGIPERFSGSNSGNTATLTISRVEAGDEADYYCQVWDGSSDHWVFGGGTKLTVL; 86700
TINA-0217.0128 (antibody, V domains shown, Monospecific IgG4PE) VH: QVQLVQSGAEVTKPGASVKVSCKASRYSFTSYYMHWVRQAPGQGLEWMGIINPKSGSTSYAQKFQGRVTMTRDTSTSTVYMELSSLRSEDTAVYYCARDGYGSSSRCLQLWGQGTLVTVSS VL: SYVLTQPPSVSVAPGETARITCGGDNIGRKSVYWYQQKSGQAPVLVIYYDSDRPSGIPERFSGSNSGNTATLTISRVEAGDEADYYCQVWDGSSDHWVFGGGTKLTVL; 102000

Query: // lookup kon for TINA-0205.0128 (antibody, V domains shown, Monospecific IgG4PE) VH: QVQLVQSGAEVKKPGASVKVSCKASRYSFTSYYMHWVRQAPGQGLEWMGIINPKSGDTSYAQKFQGRVTMTRDTSTSTVYMELNSLRSEDTAVYYCARDGYGSSARCLQLWGQGTLVTVSS VL: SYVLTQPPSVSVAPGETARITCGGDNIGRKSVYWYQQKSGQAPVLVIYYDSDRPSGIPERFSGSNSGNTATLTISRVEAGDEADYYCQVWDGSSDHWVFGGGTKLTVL
Response: 62600

Query: So what's the measured kon for this one? TINA-0215.0128 (antibody, V domains shown, Monospecific IgG4PE) VH: QVQLVQSGAEVKKPGASVKVSCKASRYSFTSYYMHWVRQAPGQGLEWMGIINPKSGSTSYAQKFQGRVTMTRDTSTSTVYMELSSLRSEDTAVYYCARDGYGSSSRCLQLWGQGTLVTVSS VL: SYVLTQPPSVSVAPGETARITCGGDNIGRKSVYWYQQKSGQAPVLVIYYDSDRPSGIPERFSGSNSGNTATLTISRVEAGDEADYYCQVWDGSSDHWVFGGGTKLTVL
Response: 68400

Query: Which kon value is on record for TINA-0203.0128 (antibody, V domains shown, Monospecific IgG4PE) VH: QVQLVQSGAEVKKPGASVKVSCKASRYSFTSYYMHWVRQAPGQGLEWMGIINPKSGSTSYAQKFQGRVTMTRDTSTSTVYMELISLRSEDTAVYYCARDGYGSSSRCLQLWGQGTLVTVSS VL: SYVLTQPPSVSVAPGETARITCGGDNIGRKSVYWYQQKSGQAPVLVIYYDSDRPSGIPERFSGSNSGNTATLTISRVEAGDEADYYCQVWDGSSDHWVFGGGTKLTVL ?
Response: 68000

Query: May I ask what kon has been recorded for TINA-0200.0128 (antibody, V domains shown, Monospecific IgG4PE) VH: QVQLVQSGAEVKKPGASVKVSCKASRYSFTSYYLHWVRQAPGQGLEWMGIINPKTGDTSYAQKFQGRVTMTRDTSTTTVYMELSSLRSEDTAVYYCARDGYGSSARCLQLWGQGTLVTVSS VL: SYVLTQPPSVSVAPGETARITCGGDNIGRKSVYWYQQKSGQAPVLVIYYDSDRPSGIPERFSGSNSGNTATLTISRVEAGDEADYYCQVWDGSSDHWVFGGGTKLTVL ?
Response: 103000

Query: # input binder: TINA-0206.0128 (antibody, V domains shown, Monospecific IgG4PE) VH: QVQLVQSGAEVKKPGASVKVSCKASRYSFTSYYMHWVRQAPGQGLEWMGIINPKSGDTSYAQKFQGRVTMTRDTSTSTVYMDLSSLRSEDTAVYYCARDGYGSSARCLQLWGQGTLVTVSS VL: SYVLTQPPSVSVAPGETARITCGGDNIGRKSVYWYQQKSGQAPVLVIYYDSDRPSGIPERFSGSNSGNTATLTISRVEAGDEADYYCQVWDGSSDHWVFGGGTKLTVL ; wanted: its kon
Response: 67200
